Listed next: entries and their corresponding pIC50.
Target: SirT1 (Homo sapiens (Human), UniProt Q96EB6)
Sequence (Q96EB6 whole entry): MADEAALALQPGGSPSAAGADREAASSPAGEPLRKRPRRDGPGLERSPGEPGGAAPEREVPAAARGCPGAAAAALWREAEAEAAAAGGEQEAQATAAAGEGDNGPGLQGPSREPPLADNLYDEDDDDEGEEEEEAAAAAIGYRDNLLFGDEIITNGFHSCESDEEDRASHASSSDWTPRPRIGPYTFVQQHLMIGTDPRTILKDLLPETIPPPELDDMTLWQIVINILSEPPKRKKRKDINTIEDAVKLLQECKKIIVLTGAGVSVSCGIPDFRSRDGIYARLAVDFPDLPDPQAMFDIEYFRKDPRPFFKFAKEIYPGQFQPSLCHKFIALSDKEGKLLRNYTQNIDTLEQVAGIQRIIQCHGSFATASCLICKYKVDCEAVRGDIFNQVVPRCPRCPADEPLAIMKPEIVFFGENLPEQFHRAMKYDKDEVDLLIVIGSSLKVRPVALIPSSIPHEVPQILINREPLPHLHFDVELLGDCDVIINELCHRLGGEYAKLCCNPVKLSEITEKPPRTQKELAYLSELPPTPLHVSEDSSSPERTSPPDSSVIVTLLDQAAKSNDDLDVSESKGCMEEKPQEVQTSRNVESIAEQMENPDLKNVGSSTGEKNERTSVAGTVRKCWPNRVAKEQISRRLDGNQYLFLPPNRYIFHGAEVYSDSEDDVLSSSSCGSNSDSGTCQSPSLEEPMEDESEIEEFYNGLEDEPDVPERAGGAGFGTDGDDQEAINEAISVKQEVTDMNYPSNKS
Structures can show the parent of a compound that is named as a salt.
// pIC50: -log10(molar conc.)

# count of solved cases: 3
CN(C)CCCCCCCC(=O)Nc1ccc(NC(=S)NC(=O)c2ccc(C(C)(C)C)cc2)cc1 [Compound 7, hydrochloride] | 4.60
CN(C)CCCCCC(=O)Nc1ccc(NC(=S)NC(=O)c2ccc(C(C)(C)C)cc2)cc1 [Compound 6, hydrochloride] | 4.80
CN(C)CCCCC(=O)Nc1ccc(NC(=O)NC(=O)c2ccc(C(C)(C)C)cc2)cc1 [Compound 24, hydrochloride] | 4.54

Could you now consider this next compound?
Item CN(C)CCCC(=O)Nc1ccc(NC(=S)NC(=O)c2ccc(C(C)(C)C)cc2)cc1 [Compound 5, hydrochloride] with SirT1 (Homo sapiens (Human), UniProt Q96EB6) - pIC50?
4.49

Where do these numbers come from? They come from patent US8501991B2.
